Field: IC50. Provide a value for each of the molecules that follow.
Biological target: Tyk2 (Homo sapiens)
Sequence (P29597 whole entry): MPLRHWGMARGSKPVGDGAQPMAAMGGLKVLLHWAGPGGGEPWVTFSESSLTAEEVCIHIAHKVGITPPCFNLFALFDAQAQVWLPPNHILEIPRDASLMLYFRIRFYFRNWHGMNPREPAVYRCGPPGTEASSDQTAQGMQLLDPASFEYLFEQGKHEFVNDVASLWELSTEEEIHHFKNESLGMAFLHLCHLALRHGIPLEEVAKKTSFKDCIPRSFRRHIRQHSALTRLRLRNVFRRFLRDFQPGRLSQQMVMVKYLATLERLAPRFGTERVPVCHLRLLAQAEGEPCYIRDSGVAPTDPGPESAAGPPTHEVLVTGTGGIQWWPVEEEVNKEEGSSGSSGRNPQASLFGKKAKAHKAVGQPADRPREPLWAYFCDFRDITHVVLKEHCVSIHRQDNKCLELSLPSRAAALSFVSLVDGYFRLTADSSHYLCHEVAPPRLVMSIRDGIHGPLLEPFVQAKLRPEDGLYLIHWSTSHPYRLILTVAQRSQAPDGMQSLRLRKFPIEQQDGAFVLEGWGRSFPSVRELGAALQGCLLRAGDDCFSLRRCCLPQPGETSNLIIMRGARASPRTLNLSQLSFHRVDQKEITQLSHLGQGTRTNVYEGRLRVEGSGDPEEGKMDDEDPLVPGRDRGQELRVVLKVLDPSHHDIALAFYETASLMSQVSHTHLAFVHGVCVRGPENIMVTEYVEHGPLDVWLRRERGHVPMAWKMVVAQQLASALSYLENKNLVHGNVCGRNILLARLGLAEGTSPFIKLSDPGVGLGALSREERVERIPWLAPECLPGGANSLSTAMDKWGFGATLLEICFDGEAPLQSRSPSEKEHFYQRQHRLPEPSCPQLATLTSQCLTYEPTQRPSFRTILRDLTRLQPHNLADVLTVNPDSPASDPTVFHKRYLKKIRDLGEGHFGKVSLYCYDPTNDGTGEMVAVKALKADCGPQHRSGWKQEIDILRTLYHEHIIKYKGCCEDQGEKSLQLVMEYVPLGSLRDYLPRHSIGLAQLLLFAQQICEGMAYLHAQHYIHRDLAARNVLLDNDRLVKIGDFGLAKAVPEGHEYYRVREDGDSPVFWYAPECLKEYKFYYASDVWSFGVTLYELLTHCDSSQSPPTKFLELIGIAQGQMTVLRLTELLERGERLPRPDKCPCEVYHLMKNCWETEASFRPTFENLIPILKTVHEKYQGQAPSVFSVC
Assay: Inhibition of JAK kinase activity, EZ Reader microfluidic phosphorylation of peptide substrate: Tyk2
Format: biochemical
Details: Tyk2 kinase 1 nM; highest final concentration 10 μM, 1:3 serial dilution, 8 points, duplicates

- molecule: "CCCS(=O)(=O)N1CCC(n2cc(-c3ccnc(Nc4cnn(C)c4)n3)cn2)CC1"
  IC50: "≥ 10 µM"
- molecule: "Cn1cc(Nc2nccc(-c3cnn(C4CCN(C(=O)CC(F)(F)F)C4)c3)n2)cn1 (centres unmarked)"
  IC50: "≥ 10 µM"
- molecule: "Cn1cc(Nc2nccc(-c3cnn(C4CN(C(=O)CO)C4)c3)n2)cn1"
  IC50: "≥ 10 µM"
- molecule: "CC(=O)N1CC(n2cc(-c3ccnc(Nc4cnn(C)c4)c3)cn2)C1"
  IC50: "≥ 10 µM"

Hi, could you look up IC50 for each item in my list?
1. CCS(=O)(=O)N1CC(n2cc(-c3ccnc(Nc4cnn(C)c4)n3)cn2)C1
2. CCS(=O)(=O)N1CC(n2cc(-c3ccnc(Nc4cnn(C)c4)c3)cn2)C1
3. CCCS(=O)(=O)N1CC(n2cc(-c3ccnc(Nc4cnn(C)c4)n3)cn2)C1
4. COC(=O)CS(=O)(=O)N1CC(CC#N)(n2cc(-c3ccnc(Nc4cnn(C)c4)n3)cn2)C1

// result
1. 1 to 10 µM
2. ≥ 10 µM
3. ≥ 10 µM
4. 0.1 to 1 µM

* * *

Target: JAK2 (Homo sapiens, UniProt O60674)
Sequence (O60674 whole entry): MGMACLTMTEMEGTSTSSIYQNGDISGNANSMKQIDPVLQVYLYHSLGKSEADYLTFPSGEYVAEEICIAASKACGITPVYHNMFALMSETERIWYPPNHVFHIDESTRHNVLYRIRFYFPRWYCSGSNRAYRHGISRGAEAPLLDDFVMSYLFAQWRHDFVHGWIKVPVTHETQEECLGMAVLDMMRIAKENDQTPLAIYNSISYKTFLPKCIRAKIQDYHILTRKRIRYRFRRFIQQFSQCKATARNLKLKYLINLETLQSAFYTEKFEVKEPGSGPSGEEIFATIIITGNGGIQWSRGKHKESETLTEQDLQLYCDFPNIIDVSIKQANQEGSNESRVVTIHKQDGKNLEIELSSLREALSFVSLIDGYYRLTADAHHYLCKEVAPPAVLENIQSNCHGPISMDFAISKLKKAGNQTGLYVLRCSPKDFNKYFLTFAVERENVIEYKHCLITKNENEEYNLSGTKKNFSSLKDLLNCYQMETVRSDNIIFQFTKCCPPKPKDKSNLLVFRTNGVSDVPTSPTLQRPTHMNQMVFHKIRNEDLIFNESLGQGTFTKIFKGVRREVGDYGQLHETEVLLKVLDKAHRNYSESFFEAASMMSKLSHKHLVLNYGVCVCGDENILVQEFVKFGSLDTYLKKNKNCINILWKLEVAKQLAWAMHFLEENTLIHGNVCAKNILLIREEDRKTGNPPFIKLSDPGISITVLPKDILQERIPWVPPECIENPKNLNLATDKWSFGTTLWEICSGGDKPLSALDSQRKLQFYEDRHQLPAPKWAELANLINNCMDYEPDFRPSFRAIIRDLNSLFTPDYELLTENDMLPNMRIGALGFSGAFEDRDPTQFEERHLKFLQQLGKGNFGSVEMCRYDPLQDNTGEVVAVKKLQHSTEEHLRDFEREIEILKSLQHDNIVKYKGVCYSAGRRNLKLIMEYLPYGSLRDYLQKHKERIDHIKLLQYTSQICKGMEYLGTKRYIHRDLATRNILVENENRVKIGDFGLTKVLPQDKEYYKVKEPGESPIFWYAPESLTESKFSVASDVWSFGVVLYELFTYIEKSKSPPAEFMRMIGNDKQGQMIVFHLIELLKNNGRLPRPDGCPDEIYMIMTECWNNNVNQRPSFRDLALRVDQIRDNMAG
Test: Inhibition of JAK kinase activity, EZ Reader microfluidic phosphorylation of peptide substrate: JAK2
Type: biochemical
Conditions: JAK2 kinase 1 nM; highest final concentration 10 μM, 1:3 serial dilution, 8 points, duplicates
For each of the molecules below, state its IC50.

Return reported IC50 values for all items listed beneath this line.
1. Cn1cc(Nc2cc(-c3cnn(C4CN(C(=O)CC(F)(F)F)C4)c3)ccn2)cn1 [TDM-180636]
2. Cn1cc(Nc2nccc(-c3cnn(C4CCN(C(=O)C5CC5)CC4)c3)n2)cn1 [TDM-180673]

// result
1: ≥ 10 µM; 2: ≥ 10 µM

Your task in this section: give IC50 for each listed record.
1. CCS(=O)(=O)N1CC(n2cc(-c3ccnc(Nc4cnn(C)c4)c3)cn2)C1 [TDM-180642]
2. Cn1cc(Nc2nccc(-c3cnn(C4CCN(C(=O)C5CC5)C4)c3)n2)cn1 (stereo not drawn) [TDM-180652]
3. CCC(=O)N1CC(n2cc(-c3ccnc(Nc4cnn(C)c4)c3)cn2)C1 [TDM-180639]
4. CN1CCN(c2ccc(-c3ccnc(Nc4cnn(C)c4)n3)cc2)CC1 [TDM-180828]

// result
["≥ 10 µM", "≥ 10 µM", "≥ 10 µM", "1 to 10 µM"]

Look at each molecule and report its IC50.
1. CCCC(=O)N1CCC(n2cc(-c3ccnc(Nc4cnn(C)c4)n3)cn2)C1 (stereo not drawn) [TDM-180650]
2. CC(=O)N1CC(n2cc(-c3ccnc(Nc4cnn(C)c4)c3)cn2)C1 [TDM-180645]
3. CCS(=O)(=O)N1CC(CC#N)(n2ccc(-c3ccnc(Nc4cnn(C)c4)n3)c2)C1 [TDM-180771]

// result
1. ≥ 10 µM
2. ≥ 10 µM
3. < 0.1 µM
